For each entry below, report its EC50 value.
- System: T1, human CD70 expressed on the cell surface of tumor cell lines (human, UniProt P32970 1-193)
- T1 construct: whole, on cells
- T1 sequence (looked up): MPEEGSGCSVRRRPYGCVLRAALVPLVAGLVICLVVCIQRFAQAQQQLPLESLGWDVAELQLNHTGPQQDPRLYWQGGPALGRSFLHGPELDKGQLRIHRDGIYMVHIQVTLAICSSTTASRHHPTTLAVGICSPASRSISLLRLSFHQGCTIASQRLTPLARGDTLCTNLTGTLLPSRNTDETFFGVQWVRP
- Measurement notes: flow cytometry on U251 cells
// units = nM; emit number, no label

Name the reported EC50 value associated with the binder 2D2, full IgG (antibody, V domains shown) VH: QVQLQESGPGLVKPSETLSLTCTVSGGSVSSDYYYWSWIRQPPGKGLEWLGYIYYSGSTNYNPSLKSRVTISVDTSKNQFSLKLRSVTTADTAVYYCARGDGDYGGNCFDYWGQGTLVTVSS VL: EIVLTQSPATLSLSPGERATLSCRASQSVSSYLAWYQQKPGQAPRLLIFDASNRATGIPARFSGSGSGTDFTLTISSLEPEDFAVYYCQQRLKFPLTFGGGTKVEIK
7.38

Try the binder 2A4P0L1, full IgG (antibody, V domains shown) VH: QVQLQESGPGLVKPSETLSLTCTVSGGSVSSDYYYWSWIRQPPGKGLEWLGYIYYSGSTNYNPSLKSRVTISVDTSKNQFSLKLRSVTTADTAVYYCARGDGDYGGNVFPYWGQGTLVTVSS VL: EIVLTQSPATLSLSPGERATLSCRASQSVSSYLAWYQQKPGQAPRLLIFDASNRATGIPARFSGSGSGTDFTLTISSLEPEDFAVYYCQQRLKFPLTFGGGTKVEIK
4.72

Source of measurements: patent US20250066490A1
